Assay system Human eIF4E (Homo sapiens (Human), UniProt P06730); read-out recorded as IC50.
State the answer as a number, implicitly in µM.

O=C(O)c1cc(-c2nc(-c3ccc(Cl)c(Cl)c3)cs2)ccc1-c1cncc(Cl)c1; 5.4
Cc1ccc(-c2csc(-c3ccc(-c4ccccc4[N+](=O)[O-])c(C(=O)O)c3)n2)c(C)c1; 4.2
O=C(O)c1cc(-c2nc(-c3ccc(Cl)c(Cl)c3)cs2)ccc1-c1ccc([N+](=O)[O-])cc1; 4.1
Cc1ccc(F)c(-c2ccc(-c3nc(-c4ccc(Cl)c(Cl)c4)cs3)cc2C(=O)O)c1Cl; 1.6

Kindly consider the entry below.
Asked: Determine from records and report IC50 for O=C(NC1CCOCC1)c1ccc(-c2ccc(-c3nc(-c4ccc(Cl)c(Cl)c4)cs3)cc2C(=O)O)cc1
Given back: 5.7

###

Assay system Human eIF4E (Homo sapiens (Human), UniProt P06730); read-out recorded as pIC50.
Please keep in mind that pIC50 is minus log10 of the molar concentration; only the number is needed.

O=C(O)c1cc(-c2nc(-c3ccc(Cl)c(Cl)c3)cs2)ccc1-c1ccc(F)cn1; 5.52
COc1ccc(-c2ccc(-c3nc(-c4ccc(Cl)c(Cl)c4)cs3)cc2C(=O)O)c([N+](=O)[O-])c1; 5.49

Kindly consider the entry below.
Asked: Fetch value of pIC50 on Human eIF4E (Homo sapiens (Human), UniProt P06730) for O=C(O)c1cc(-c2nc(-c3ccc(Cl)cc3Cl)cs2)ccc1-c1ccccc1[N+](=O)[O-] .
Sequence (P06730 28-217): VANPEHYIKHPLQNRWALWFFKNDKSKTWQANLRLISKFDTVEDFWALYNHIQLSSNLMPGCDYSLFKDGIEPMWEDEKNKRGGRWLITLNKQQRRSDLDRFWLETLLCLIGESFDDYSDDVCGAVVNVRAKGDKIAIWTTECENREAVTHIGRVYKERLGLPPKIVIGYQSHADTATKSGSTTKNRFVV
Given back: 5.46
